Molecular target: T1, human GITR, membrane bound (on activated human T cells and on 3A9-hGITR cells) (human, UniProt Q9Y5U5 26-241)
T1 construct: whole, on cells; the cell is named under assay; also called huGITR; TNFRSF18
T1 sequence (looked up): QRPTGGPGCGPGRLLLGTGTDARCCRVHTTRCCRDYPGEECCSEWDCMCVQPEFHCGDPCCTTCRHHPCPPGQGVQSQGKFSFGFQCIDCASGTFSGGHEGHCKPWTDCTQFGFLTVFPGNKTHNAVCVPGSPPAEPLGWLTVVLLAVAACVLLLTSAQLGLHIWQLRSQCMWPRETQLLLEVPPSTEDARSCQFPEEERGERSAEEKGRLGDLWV
Assay: FACS binding to 3A9-hGITR transfectant, Geo-MFI (PE); EC50 table beside the curves; unit from the axis
ASSAY READOUT: pEC50
pEC50 field: float, defined as -log10 of concentration (mol/L).

### Prompt Query: pEC50; subject: 28F3 VH CDR3 mutant M98V, D106E, M111L (antibody, V domains shown, also called A3) VH: QVQLVESGGGVVQPGRSLRLSCAASGFTFSSYGMHWVRQAPGKGLEWVAVIWYEGSNKYYADSVKGRFTISRDNSKNTLYLQMNSLRAEDTAVYYCARGGSVVRGEYYYGLDVWGQGTTVTVSS VL: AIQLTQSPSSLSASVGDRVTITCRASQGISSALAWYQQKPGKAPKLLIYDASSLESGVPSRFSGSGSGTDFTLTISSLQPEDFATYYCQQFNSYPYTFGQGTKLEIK
### Response 8.54

Cited source: patent US20170145104A1
